- Test system: CAKI-1
- experiment notes: NCI tumour cell line growth inhibition, 48 h
Active and inactive are the calls of the source. Cut-off read from the data, not from the text of the source: active = GI50 up to about 1.1 µM and inactive = higher. Residues, ends and D or L forms follow the SMILES beside them. *: point of attachment. X38 = O=C(c1ccc(-c2ccc(Cl)cc2Cl)o1)*
Hello, when you answer, please use one of the following outcomes: 1 (active), -1 (inactive)

[in] Per the records of this test, what outcome belongs to CO[C@H]1Nc2c(ccc(C)c2O)C(=O)N2C=C(/C=C/C(N)=O)C[C@@H]12 [ANTHRAMYCIN METHYL ETHER] ?
[out] 1

[in] Another compound: O/N=C1\C=Cc2nn(-c3ccccc3)nc2\C1=N/O
[out] -1

[in] Follow-up item: CC(=O)[C@H]1CC[C@H]2[C@@H]3CCC4=CC(=O)CC[C@]4(C)[C@H]3CC[C@]12C [PROGESTERONE]
[out] -1

[in] Same question, CNC(=O)Nc1nc2cc([N+](=O)[O-])ccc2[nH]1 this time
[out] -1

[in] Queued: COC1OC(COS(=O)(=O)c2ccc(C)cc2)C(O)C(OS(=O)(=O)c2ccc(C)cc2)C1OS(=O)(=O)c1ccc(C)cc1 (configuration not stated)
[out] 1

[in] Request: Cc1cccc2oc3c(c(=O)c12)CC(O)C(C)(C)O3 (configuration not stated)
[out] -1

[in] Same again, this time with COc1c2c(c(OC)c3c(=O)cc(C/C(=N/NC(=O)C[n+]4ccccc4)C(=O)Nc4cc(C)ccc4C)oc13)OCO2
[out] -1

[in] Repeat for the following compound: CCOC(=O)c1nc2ccccc2nc1NCc1cc(OC)c(OC)c(OC)c1
[out] -1

[in] Subsequent entry: COC(=O)C(CC(C)C)NC(=O)C(Cc1ccccc1)NC(=O)C1CCCN1C(=O)C(CO)NC(=O)c1ccc(-c2ccc(Cl)cc2Cl)o1 (configuration not stated) (X38-SPFL-OMe; configuration not given here)
[out] -1

[in] Field entry: C#CC[C@@H]1C(=O)N(Cc2ccc(OC)cc2)[C@@H](C(C)C)C(=O)N1Cc1ccc(OC)cc1
[out] -1

[in] Another compound: Cc1cccc2c(N)c3cccc(C(=O)NCC[N+](C)(C)Cc4c([N+](=O)[O-])ncn4C)c3nc12
[out] -1

[in] Thanks! And O=C1c2c(c(-c3ccccc3)c(-c3ccccc3)c(-c3ccccc3)c2-c2ccccc2)C(=O)N1c1cccc(Br)c1 ?
[out] -1

[in] Let us now turn to O=C1C=CC(=C(c2ccc(O)cc2)c2ccc(O)cc2)C=C1 [AURIN]
[out] -1

[in] Param item: CCOC(=O)Cn1nnc2cc(Nc3nc4ccccc4nc3C(=O)OCC)ccc21
[out] -1

[in] For CCOC(=O)/C(C#N)=C/c1ccc2c(-c3c(OCC)ccc4cc(/C=C(\C#N)C(=O)OCC)ccc34)c(OCC)ccc2c1 then?
[out] -1

[in] Moving on to the next compound: CN(C)CCONC(=O)C12CC3CC(CC(C3)C1)C2
[out] -1

[in] Would you mind doing CC(=O)N1c2ccccc2N(C(C)=O)C1c1ccc(C2N(C(C)=O)c3ccccc3N2C(C)=O)[nH]1 as well?
[out] -1

* * *

- Test system: M19-MEL
- experiment notes: NCI tumour cell line growth inhibition, 48 h
Activity calls are given as the source filed them. Rule as the data show it: active = GI50 up to about 1.1 µM and inactive = higher.
Give GI50 for every item shown.

[in] So what does the record say about GI50 for O=C1c2c(c(-c3ccccc3)c(-c3ccccc3)c(-c3ccccc3)c2-c2ccccc2)C(=O)N1c1cccc(Br)c1 ?
[out] > 100 µM (inactive)

[in] Then CCCC(C)n1c(C)nc2c1C(=O)c1ccccc1C2=O (centres undefined) ?
[out] 12.6 µM (inactive)

[in] Field entry: CCNC(=O)C(O)C1(O)CCC2[C@@H]3CCC4=CC(=O)C=C[C@]4(C)C3[C@@H](O)C[C@@]21C (some centres undefined)
[out] > 100 µM (inactive)

[in] Also, CCOC(=O)C(C)c1c(C(=O)c2ccc(C)nc2)c2ccccc2n1C (centres undefined) please.
[out] > 100 µM (inactive)

[in] Again, but for O=P1(NCCCl)OCCC(OO)N1CCCl (centres undefined)
[out] 34.8 µM (inactive)

[in] Can you handle O=C(O)C1=CCCc2ccc3ccccc3c21 next?
[out] > 100 µM (inactive)

[in] Similarly, CC(=O)N1[C@H](C(=O)O)CS[C@H]1c1ccncc1 ?
[out] > 100 µM (inactive)

[in] And the next one, CCOc1ccccc1NC(=O)C(=O)c1c(O)c2ccc(O)cc2oc1=O ?
[out] > 100 µM (inactive)

[in] Param item: C=C1C(C)C2C(Cc3ccccc3)NC(=O)C23OC(=O)/C=C\CC(=O)CCC(C)C/C=C/C3C1O (centres undefined)
[out] 4.3 µM (inactive)
